Assay Info: qHTS for Inhibitors of human tyrosyl-DNA phosphodiesterase 1 (TDP1): qHTS in cells in presence of CPT; note: nearly all actives have a fitted effect of over 55% in size; note: potency is the fitted concentration of half-maximal effect
Condition: chicken DT40 Tdp1-/-;hTDP1 cells + 20 nM CPT, ATP luminescence, 48 h; series mostly up to 46.2 µM
The campaign covered roughly 420,000 compounds. About 50,000 (12%) were called active. Inconclusive results (about 26%) are left out. What follows is part of a selection rich in actives, with near analogues and random picks from the rest.
Endpoint Label: Potency

INSERT INTO assay_data (molecule, endpoint_label, recorded_result) VALUES
  ('CCCc1nc(N2CCN(C)CC2)c2sc(=S)n(-c3ccccc3)c2n1', 'Potency', '18.4 µM (active)'),
  ('COc1ccc(-c2nc3cc([N+](=O)[O-])ccc3o2)cc1OC', 'Potency', 'inactive'),
  ('CCc1ccc(C(=O)N2CCN(S(=O)(=O)c3sc(C(=O)O)c(C)c3C(=O)O)CC2)cc1', 'Potency', 'inactive'),
  ('O=C(c1ccc(F)cc1)c1cn(Cc2ccc(F)cc2)c2cc3c(cc2c1=O)OCCO3', 'Potency', 'inactive'),
  ('CC(=O)c1ccc(-c2nnc(CCC(=O)N(C)Cc3cnc4ccccn34)o2)s1', 'Potency', 'inactive'),
  ('CCN(CC(=O)Nc1ccc(NC(C)=O)cc1)C(=O)C1CC(=O)N(Cc2ccc(C)cc2)C1 (stereo not drawn)', 'Potency', 'inactive');

// CSCCC(Nc1ccc(S(=O)(=O)N2CCOCC2)cc1[N+](=O)[O-])C(=O)OCC(=O)N(C(C)C)C(C)C (stereo not drawn) : Potency value = inactive

So, "Cc1nnc(-c2ccc(Oc3ccc(C)c(C)c3)c([N+](=O)[O-])c2)o1" ? Its Potency was 16.4 µM (active)

Record "COc1cc(C(=O)NCc2ccncc2)cc(Br)c1OCc1ccccc1" . Reported Potency: 18.4 µM (active)

Summary for this molecule, "COc1cc(C(=O)NN(CCC#N)C2=NS(=O)(=O)c3ccccc32)cc(OC)c1OC" : Potency is inactive

Entry under test: "N/C(=N\OC(=O)CCn1cccc(C(F)(F)F)c1=O)c1ccc(OC(F)(F)F)cc1" . Its Potency was inactive

For this molecule ( C=CC1C(OC2OC(CO)C(O)C(O)C2O)OC=C(C(=O)OC)C1CC1CC(=O)CC(CC(=O)CCc2ccc(O)cc2)O1 (stereo not drawn) ), measured Potency is inactive

// Potency value for "CC(C)Cc1nnc(NC(=O)CN2C(=O)NC3(CCCCC3)C2=O)s1" : inactive

Record "C[C@H](CO)N1C[C@H](C)[C@@H](CN(C)C(=O)Nc2ccc3c(c2)OCO3)Oc2c(cccc2N(C)C)C1=O" . Reported Potency: inactive

Record "CCOC(=O)c1c(C)[nH]c(C(=O)OCC(=O)c2ccc(OC)cc2OC)c1C" . Reported Potency: inactive
